target under test: hSSTR5 (Homo sapiens)
Construct: expressed in transfected cells; host or cells: CHO-K1 (ATCC), pcDNA3.1, G418-selected clonal line; membranes
Sequence (P35346 whole entry): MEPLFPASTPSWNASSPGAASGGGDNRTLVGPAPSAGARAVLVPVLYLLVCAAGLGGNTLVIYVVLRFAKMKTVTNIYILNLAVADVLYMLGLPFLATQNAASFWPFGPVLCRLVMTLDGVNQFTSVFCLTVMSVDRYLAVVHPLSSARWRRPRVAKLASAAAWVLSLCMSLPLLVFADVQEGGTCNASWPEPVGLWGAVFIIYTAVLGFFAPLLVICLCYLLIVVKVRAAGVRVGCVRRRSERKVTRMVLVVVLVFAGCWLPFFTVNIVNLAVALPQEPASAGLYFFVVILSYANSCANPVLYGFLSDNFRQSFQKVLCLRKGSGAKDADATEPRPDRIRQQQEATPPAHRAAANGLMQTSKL
assay method text: Somatostatin receptor radioligand binding assay (hSSTR5)
condition parameters: CHO-K1 cell membranes; 0.05 nM [125I-Tyr]-[DPhe-cyclo(Cys-Tyr-DTrp-Lys-Val-Cys)-Thr-NH2]; 60 minutes at 25°C; read-out: hSSTR5 Ki (nM) ± SEM
Numbered stars: 1 amine (or outer) side, 2 acyl side, 3 side chain; on linkers, the order of the positions; unused ones are H or OH. Bridge positions count the residues as written; N and C are the ends. Square brackets hold non-standard residues; d marks the D form. Peptide text beside a SMILES is read from it. * marks the point of attachment. X1 = CN1C[C@H](CSCCN(CCSC[C@@H]2C[C@@H]3c4cccc5[nH]cc(c45)C[C@H]3N(C)C2)[C@H](CCCCN[*:2])C(=O)[*:1])C[C@@H]2c3cccc4[nH]cc(c34)C[C@H]21; X2 = CN1C[C@H](CSCC(=O)*)C[C@@H]2c3cccc4[nH]cc(c34)C[C@H]21; 4Pal = N[C@@H](Cc1ccncc1)C(=O)O
So I've got a bunch of compounds here, and I need their Ki values.
Number only, in nM; omit the unit.

Value of measured Ki for the entry C[C@@H](O)[C@@H]1NC(=O)[C@H](CCCCN)NC(=O)[C@@H](Cc2c[nH]c3ccccc23)NC(=O)[C@H](Cc2ccncc2)NC(=O)[C@H](Cc2ccccc2)NC(=O)[C@H](CCCNC(=N)N)NC(=O)[C@H](NC(=O)CSC[C@@H]2C[C@@H]3c4cccc5[nH]cc(c45)C[C@H]3N(C)C2)CCCCNC(=O)[C@H](Cc2ccc(O)cc2)NC1=O [Compound 25] (X2-[dK]RF[4Pal][dW]KTY; lactam 1-C) : 0.95

Value of measured Ki for the entry C[C@@H](O)[C@@H]1NC(=O)[C@H](CCCCN)NC(=O)[C@@H](Cc2c[nH]c3ccccc23)NC(=O)[C@H](Cc2ccncc2)NC(=O)[C@H](Cc2ccccc2)NC(=O)[C@H](CCCNC(=N)N)NC(=O)[C@H](NC[C@H](CCCCNC(=O)CSC[C@@H]2C[C@@H]3c4cccc5[nH]cc(c45)C[C@H]3N(C)C2)NC(=O)CSC[C@@H]2C[C@@H]3c4cccc5[nH]cc(c45)C[C@H]3N(C)C2)CCCCNC(=O)[C@H](Cc2ccc(O)cc2)NC1=O [Compound 8] : 1.49

Value of measured Ki for the entry C[C@@H](O)[C@@H]1NC(=O)[C@H](CCCCN)NC(=O)[C@@H](Cc2c[nH]c3ccccc23)NC(=O)[C@H](Cc2ccncc2)NC(=O)[C@H](Cc2ccccc2)NC(=O)[C@H](CCCNC(=N)N)NC(=O)[C@H](N(CCSC[C@@H]2C[C@@H]3c4cccc5[nH]cc(c45)C[C@H]3N(C)C2)CCSC[C@@H]2C[C@@H]3c4cccc5[nH]cc(c45)C[C@H]3N(C)C2)CCCCNC(=O)[C@H](Cc2ccccc2)NC1=O [Compound 29] (RF[4Pal][dW]KTF; linker N-C via X1) : 2.37

---

target under test: hDRD2 (Homo sapiens, UniProt P14416)
Sequence (P14416 whole entry): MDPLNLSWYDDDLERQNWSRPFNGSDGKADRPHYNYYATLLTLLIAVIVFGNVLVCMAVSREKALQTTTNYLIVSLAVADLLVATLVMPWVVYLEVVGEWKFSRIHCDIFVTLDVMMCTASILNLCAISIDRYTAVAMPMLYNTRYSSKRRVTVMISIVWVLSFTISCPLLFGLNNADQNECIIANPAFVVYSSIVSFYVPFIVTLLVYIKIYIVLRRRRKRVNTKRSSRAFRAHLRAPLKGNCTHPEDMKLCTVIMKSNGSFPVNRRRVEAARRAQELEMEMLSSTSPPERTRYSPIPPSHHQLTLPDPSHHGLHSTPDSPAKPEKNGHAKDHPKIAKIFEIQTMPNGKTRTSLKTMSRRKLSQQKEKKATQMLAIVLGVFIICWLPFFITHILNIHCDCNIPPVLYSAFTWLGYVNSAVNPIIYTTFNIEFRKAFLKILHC
assay method text: biochemical
Assay type: binding
Parameters: expressed in transfected cells; host or cells: CHO-K1, pcDNA3.1/GS, zeocin-selected clonal line; membranes
condition parameters: CHO-K1 cell membranes; […] [3H]-spiperone; 60 minutes at 25°C; read-out: hDRD2 Ki (nM) ± SEM
Bridge positions count the residues as written; N and C are the ends. Square brackets hold non-standard residues; d marks the D form. Peptide text beside a SMILES is read from it. * marks the point of attachment. X2 = CN1C[C@H](CSCC(=O)*)C[C@@H]2c3cccc4[nH]cc(c34)C[C@H]21; 4Pal = N[C@@H](Cc1ccncc1)C(=O)O
So I've got a bunch of molecules here, and I need their Ki values.

Value of measured Ki for the entry C[C@@H](O)[C@@H]1NC(=O)[C@H](CCCCN)NC(=O)[C@@H](Cc2c[nH]c3ccccc23)NC(=O)[C@H](Cc2ccccc2)NC(=O)[C@H](Cc2ccccc2)NC(=O)[C@H](CCCNC(=N)N)NC(=O)[C@H](NC[C@@H](Cc2ccc(O)cc2)NC(=O)CSC[C@@H]2C[C@@H]3c4cccc5[nH]cc(c45)C[C@H]3N(C)C2)CCCCNC(=O)[C@H](Cc2ccccc2)NC1=O [Compound 41] : 8.5 nM

Value of measured Ki for the entry C[C@@H](O)[C@@H]1NC(=O)[C@H](CCCCN)NC(=O)[C@@H](Cc2c[nH]c3ccccc23)NC(=O)[C@H](Cc2ccccc2)NC(=O)[C@H](Cc2ccccc2)NC(=O)[C@H](CCCNC(=N)N)NC(=O)[C@H](NC[C@H](Cc2ccc(O)cc2)NC(=O)CSC[C@@H]2C[C@@H]3c4cccc5[nH]cc(c45)C[C@H]3N(C)C2)CCCCNC(=O)[C@H](Cc2ccc(F)cc2)NC1=O [Compound 5] : 28.5 nM

Value of measured Ki for the entry C[C@@H](O)[C@@H]1NC(=O)[C@H](CCCCN)NC(=O)[C@@H](Cc2c[nH]c3ccccc23)NC(=O)[C@H](Cc2cccnc2)NC(=O)[C@H](Cc2ccccc2)NC(=O)[C@H](CCCNC(=N)N)NC(=O)[C@H](NC[C@H](Cc2ccc(O)cc2)NC(=O)CSC[C@@H]2C[C@@H]3c4cccc5[nH]cc(c45)C[C@H]3N(C)C2)CCCCNC(=O)[C@H](Cc2ccccc2)NC1=O [Compound 38] : 179 nM

Value of measured Ki for the entry C[C@@H](O)[C@@H]1NC(=O)[C@H](CCCCN)NC(=O)[C@@H](Cc2c[nH]c3ccccc23)NC(=O)[C@H](Cc2ccncc2)NC(=O)[C@H](Cc2ccccc2)NC(=O)[C@H](CCCNC(=N)N)NC(=O)[C@H](NC(=O)CSC[C@@H]2C[C@@H]3c4cccc5[nH]cc(c45)C[C@H]3N(C)C2)CCCCNC(=O)[C@H](Cc2ccccc2)NC1=O [Compound 24] (X2-[dK]RF[4Pal][dW]KTF; lactam 1-C) : 175 nM

Value of measured Ki for the entry C[C@@H](O)[C@@H]1NC(=O)[C@H](CCCCN)NC(=O)[C@@H](Cc2c[nH]c3ccccc23)NC(=O)[C@H](Cc2ccccc2)NC(=O)[C@H](Cc2ccccc2)NC(=O)[C@H](CCCNC(=N)N)NC(=O)[C@H](NC[C@H](CCCCNC(=O)CSC[C@@H]2C[C@@H]3c4cccc5[nH]cc(c45)C[C@H]3N(C)C2)NC(=O)CSC[C@@H]2C[C@@H]3c4cccc5[nH]cc(c45)C[C@H]3N(C)C2)CCCCNC(=O)[C@H](Cc2ccc(F)cc2)NC1=O [Compound 47] : 84.2 nM

Value of measured Ki for the entry C[C@@H](O)[C@@H]1NC(=O)[C@H](CCCCN)NC(=O)[C@@H](Cc2c[nH]c3ccccc23)NC(=O)[C@H](Cc2ccncc2)NC(=O)[C@H](Cc2ccccc2)NC(=O)[C@H](CCCNC(=N)N)NC(=O)[C@H](NCCS(=O)(=O)C[C@@H]2C[C@@H]3c4cccc5[nH]cc(c45)C[C@H]3N(C)C2)CCCCNC(=O)[C@H](Cc2ccc(O)cc2)NC1=O [Compound 20] : 115 nM
